Known Screen Rabbit/No Protein of a selection of molecules
# Test system: rabbit vWF A1 domain (SEQ ID NO 6)
# Sequence (as listed by the source): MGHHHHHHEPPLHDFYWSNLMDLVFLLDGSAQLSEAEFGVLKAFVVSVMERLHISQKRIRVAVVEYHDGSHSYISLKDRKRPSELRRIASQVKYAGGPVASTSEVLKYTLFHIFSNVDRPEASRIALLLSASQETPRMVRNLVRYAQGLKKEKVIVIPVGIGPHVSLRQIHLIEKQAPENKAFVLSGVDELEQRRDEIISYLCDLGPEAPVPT
# assay_name: 3-point dot blot screen, rabbit vWF A1 domain
# Format: binding
# test_parameters: 3-point dot blot screen, 20 nM rabbit vWF A1 domain; ratio of fraction of aptamer bound with target protein to fraction bound without protein

molecule: AMX236.F8: DNA SELEX 2 aptamer clone (nucleic acid, DNA, backbone not given here, DNA SELEX 2 aptamer clone) CTACCTACGATCTGACTAGCTCCAGTGTTTTATCCAATAACCGTGCGGTGCCTCCGTGATGCTTACTCTCATGTAGTTCC
Screen Rabbit/No Protein: 1.13

molecule: AMX238.D5: DNA SELEX 2 aptamer clone (nucleic acid, DNA, backbone not given here, DNA SELEX 2 aptamer clone) DNA: CTACCTACGATCTGACTAGCTCCAGTGTTTTATTCAATAACCGTGCGGTGTCTCCGTGAGCTTACTCTCATGTAGTTCC
Screen Rabbit/No Protein: 1.40

molecule: AMX236.C12: DNA SELEX 2 aptamer clone (nucleic acid, DNA, backbone not given here, DNA SELEX 2 aptamer clone) CTACCTACGATCTGACTAGCTTGGTAGCGACTCCGTGGAGCTGCGGTTTGGTCGACGTCAGCTTACTCTCATGTAGTTCC
Screen Rabbit/No Protein: 2.24

molecule: AMX238.H5: DNA SELEX 2 aptamer clone (nucleic acid, DNA, backbone not given here, DNA SELEX 2 aptamer clone) DNA: CTACCTACGATCTGACTAGCGTGCAGTGCCTATTCTAGGCCGTGCGGTGCCTCCGTCACGCTTACTCTCATGTAGTTCC
Screen Rabbit/No Protein: 3.46

molecule: AMX237.A2: DNA SELEX 2 aptamer clone (nucleic acid, DNA, backbone and methylation of C not given here, DNA SELEX 2 aptamer clone) CTACCTACGATCTGACTAGCTCCAGTGTTTCATCCAATAACCGTGCGGTGCCTCCGTGAGCTTACTCTCATGTAGTTCC
Screen Rabbit/No Protein: 2.34

molecule: AMX237.B12: DNA SELEX 2 aptamer clone (nucleic acid, DNA, backbone not given here, DNA SELEX 2 aptamer clone) DNA: CTACCTACGATCTGACTAGCGGAATGAGAATGCAGGTGGATTGCTCAGGTCTGCTGGCTGCTTACTCTCATGTAGTTCC
Screen Rabbit/No Protein: 4.67

molecule: AMX238.A3: DNA SELEX 2 aptamer clone (nucleic acid, DNA, backbone not given here, DNA SELEX 2 aptamer clone) DNA: CTACCTACGATCTGACTAGCTCAAAGTATTACTTATTGGCAATAAGTCGTTTACTCTATAGCTTACTCTCATGTAGTTCC
Screen Rabbit/No Protein: 1.03

molecule: AMX237.B1: DNA SELEX 2 aptamer clone (nucleic acid, DNA, backbone not given here, DNA SELEX 2 aptamer clone) CTACCTACGATCTGACTAGCTTGGTAGCGACACAGTGGAGCTGCGGTTTGGTCGACGTCAGCTTACTCTCATGTAGTTCC
Screen Rabbit/No Protein: 2.10

molecule: AMX238.F5: DNA SELEX 2 aptamer clone (nucleic acid, DNA, backbone not given here, DNA SELEX 2 aptamer clone) DNA: CTACCTACGATCTGACTAGCGGAATGAGAAGCTGGTGGATTGCTCAGGTCTGCTGGCTGCTTACTCTCATGTAGTTCC
Screen Rabbit/No Protein: 4.40

molecule: AMX237.G7: DNA SELEX 2 aptamer clone (nucleic acid, DNA, backbone not given here, DNA SELEX 2 aptamer clone) DNA: CTACCTACGATCTGACTAGCTTGGTAGCGACTTTGTGGAGCTGCGGTTTGGTCGACGTCAGCTTACTCTCATGTAGTTCC
Screen Rabbit/No Protein: 2.54

molecule: AMX236.B8: DNA SELEX 2 aptamer clone (nucleic acid, DNA, backbone not given here, DNA SELEX 2 aptamer clone) CTACCTACGATCTGACTAGCTTGGTAGCGACTCTGTGGAGCTGCGGTCTGGTCGACGTCAGCTTACTCTCATGTAGTTCC
Screen Rabbit/No Protein: 1.88

molecule: AMX237.C9: DNA SELEX 2 aptamer clone (nucleic acid, DNA, backbone not given here, DNA SELEX 2 aptamer clone) DNA: CTACCTACGATCTGACTAGCTTGGTAGTGACTTTGTGGAGCTGCGGTTTGGTCGACGTCAGCTTACTCTCATGTAGTTCC
Screen Rabbit/No Protein: 2.19

molecule: AMX237.H5: DNA SELEX 2 aptamer clone (nucleic acid, DNA, backbone not given here, DNA SELEX 2 aptamer clone) DNA: CTACCTACGATCTGACTAGCTCCAGTGTTTCATTTAATAACCGTGCGGTGCCTCCGTGAGCTTACTCTCATGTAGTTCC
Screen Rabbit/No Protein: 1.61
